- Assay System: T1, human NKp30-his protein (KACTUS; Cat: NKP-HM430) (human, UniProt O14931 19-135, limits assumed)
- T1 construct: Bought protein (KACTUS NKP-HM430); not shown: His tag
- T1 sequence (looked up): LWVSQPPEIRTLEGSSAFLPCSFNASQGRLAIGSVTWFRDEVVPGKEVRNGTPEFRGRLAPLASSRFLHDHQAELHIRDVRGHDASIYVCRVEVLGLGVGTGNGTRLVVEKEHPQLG
- Procedure Text: BLI (Octet Red96e), antibody captured on AHC sensor, 100 nM human NKp30-his in solution, 1:1 fit
pKd: −log10 of the molar value.
Observable: pKd

Guide cases for pKd, answers given:
>>> meas_value("antibody 10 (antibody, V domains shown, expressed in CHO cells; also called chimeric antibody 10) VH: QVQLVESGGGLVQPGGSLTLSCAVSGITFSRSVMGWFRQAPGKLRELVAGITSDDNTDYADSVKGRFTISRDNAKNTVYLQMNSLKPEDTAVYYCNILPDSRLGWGQGTQVTVSS")
9.70
>>> meas_value("antibody 3 (antibody, V domains shown, expressed in CHO cells) VH: QLQLVESGGGLVQTGDSTKLSCTASGRSFSINDMGWYRQAPGKLRELVAGITSGGSTNYADSVKGRFTISRDNAKNTVYLQMNSLKPEDTAVYYCNVLGWPDFGSWGQGTQVTVSS")
8.68
>>> meas_value("antibody 16 (antibody, V domains shown, expressed in CHO cells) VH: EVQLVESGGGLVQAGGSLRLSCAASGISLITYNMGWYRQAPGKLRELVAGITTGGITDYTDSVKGRFTISRDNAKNTLYLQMNSLKPEDTAVYYCDTLGMANYWGQGTQVTVSS")
9.00

I = antibody 1 (antibody, V domains shown, expressed in CHO cells) VH: QLQLVESGGGTVQTGGSLRLACVVSGPTYSFYDMGWFRRAPGKEREFVAAVTASGDTTIYADSVKGRFTIARDNAKNTVYLQMNSLKSEDTGAYYCAAGEYSSTAATYYYWGQGTQVTVSS
II = antibody 8 (antibody, V domains shown, expressed in CHO cells) VH: QVQLVESGGGLVQTGDSLRLSCAASGRTYDNYAMGWFRQAPGKEREFVAAFSQNGGRTDYADSVKGRFAISDDRSTVHLDMNSLLPEDTAVYYCAARPPAYFSNAVYSKVDEYRYWGQGTQVTVSS
III = antibody 15 (antibody, V domains shown, expressed in CHO cells) VH: EVQLVESGGGSVQTGGSLRLSCAASGPTFNFYGMAWFRQAPGKEREFVASIIPGSGDTSYASSVRGRFTISEDNARNNAYLQMNTLKPEDTAVYYCAAGTGGIYSSDYPYWGQGTQVTVSS
IV = antibody 6 (antibody, V domains shown, expressed in CHO cells) VH: QVQLVESGGGLVQPGGSLRLSCAASRAIFPEYSIAWFRQAPGKEREGVALVSRIGDRVDYADSVKGRFTISRDNAKNTVYLQMNSLKPEDTAVYHCAAGQLSSSTYYGDEYVYWGQGTQVTVSS
V = antibody 21 (antibody, V domains shown, expressed in CHO cells) VH: EVQLVESGGGLVQPGGSLRLSCAASGSTYAFYNMGWFRQRPGKEREFAAAILWGRSGVYTTYADSVKGRFTISRDNAQNTVYLQMNSLKPEDTAVYYCAAGLGTMRANEYDYWGQGTQVTVSS
Prompt line: Put the items in sequence by pKd, from largest down. Your task in answering is to list the labels in the requested order.
Response line: III, I, IV, II, V
